Source of measurements: paper PMC5039624

B1: unnamed (parent)
chain 1: SECGKFMWKCKNSNDCCKDLVCSSRWKWCVLASPF
chain 2: RGLSDLGGRVRNIGDVMEHPLVELGVSYAALLSVIVVVVEYTMQLSGEYLVRLYLVDLILVIILWADYAYRAYKSGDPAGYVKKTLYEIPALVPAGLLALIEGHLAGLGLFRLVRLLRFLRILLIISRGSKFLSAIADAADK

Variants of: B1
Procedure summary: pull-down
Design: reference not given here
Conditions: with partner chain of the complex shown; His6-tagged VSDK micelles immobilized on nickel-NTA beads; read off a plot
Assay endpoint: screen value

Respond only with screen value recorded for chain 2 RGLSDLGGRVRNIGDVMEHPLVELGVSYAALLSVIVVVVEATMQLSGEYLVRLYLVDLILVIILWADYAYRAYKSGDPAGYVKKTLYEIPALVPAGLLALIEGHLAGLGLFRLVRLLRFLRILLIISRGSKFLSAIADAADK [chain 2 Y41A]
8%

Answer with the recorded screen value of chain 2 RGLSDLGGRVRNIGDVMEHPLVELGVSYAALLSVIVVVVEYAMQLSGEYLVRLYLVDLILVIILWADYAYRAYKSGDPAGYVKKTLYEIPALVPAGLLALIEGHLAGLGLFRLVRLLRFLRILLIISRGSKFLSAIADAADK [chain 2 T42A] only.
6%

Determine its reported screen value: chain 2 RGLSDLGGRVRNIGDVMEHPLVELGVSYAALLSVIVVVVEYTMQLAGEYLVRLYLVDLILVIILWADYAYRAYKSGDPAGYVKKTLYEIPALVPAGLLALIEGHLAGLGLFRLVRLLRFLRILLIISRGSKFLSAIADAADK [chain 2 S46A]
11%

Output screen value of chain 2 RGLSDLGGRVRNIGDVMEHPLVELGVSYAALLSVIVVVVEAAMQLSGEYLVRLYLVDLILVIILWADYAYRAYKSGDPAGYVKKTLYEIPALVPAGLLALIEGHLAGLGLFRLVRLLRFLRILLIISRGSKFLSAIADAADK [chain 2 Y41A T42A]
19%

Supply recorded screen value for chain 2 RGLSDLGGRVRNIGDVMEHPLVELGVSYAALLSVIVVVVEAAMALSGEYLVRLYLVDLILVIILWADYAYRAYKSGDPAGYVKKTLYEIPALVPAGLLALIEGHLAGLGLFRLVRLLRFLRILLIISRGSKFLSAIADAADK [chain 2 Y41A T42A Q44A] here.
51%

Retrieve screen value measured for chain 2 RGLSDLGGRVRNIGDVMEHPLVELGVSYAALLSVIVVVVEYTMQLSGEYLVRLYLVDLILVIILAADYAYRAYKSGDPAGYVKKTLYEIPALVPAGLLALIEGHLAGLGLFRLVRLLRFLRILLIISRGSKFLSAIADAADK [chain 2 W65A] and print it.
-7%

Identify measured screen value corresponding to chain 2 RGLSDLGGRVRNIGDVMEHPLVELGVSYAALLSVIVVVVEYTMQLSGEYLVRLYLVDLILVIILWADYAYRAYKSGDPAGYVKKTLYEIPALVPAGLLALIEGHLAGLGLFRLVALLRFLRILLIISRGSKFLSAIADAADK [chain 2 R115A]
7%
